B1: LINE1-mini (parent)
chain: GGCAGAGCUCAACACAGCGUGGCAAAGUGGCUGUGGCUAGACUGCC

Variants of: B1
experiment: self-cleavage, relative activity (ratio to wild type); higher = more cleavage; in vitro, sequencing; the parent is a self-cleaving ribozyme
Okay, here is how we bin by self-cleavage: low bin (below 0.08), mid bin (0.08 to below 0.2), high bin (0.2 or more)

INSERT INTO results (mutantid, classlabel) VALUES
  ('U20C U38C', 'high bin'),
  ('U9C G30C', 'low bin'),
  ('A6U A24U', 'high bin'),
  ('C15A U32C', 'low bin'),
  ('A24C C42G', 'low bin'),
  ('G2C G40U', 'mid bin'),
  ('G2A U20A', 'high bin'),
  ('G2C G35C', 'low bin'),
  ('C10U G19A', 'high bin'),
  ('C3G A39G', 'high bin'),
  ('A16C G36U', 'low bin'),
  ('C18G G33A', 'low bin'),
  ('U38G G44U', 'low bin'),
  ('U32G U38G', 'low bin'),
  ('C8G A41C', 'mid bin'),
  ('G19U U43A', 'low bin'),
  ('G19C G27C', 'high bin'),
  ('C8U U32G', 'mid bin'),
  ('A26C C31A', 'high bin'),
  ('C8U U20A', 'high bin'),
  ('G5A G36U', 'mid bin'),
  ('A11U G44A', 'low bin'),
  ('A4G G33C', 'low bin'),
  ('G7U C42A', 'low bin'),
  ('U20A C45G', 'high bin'),
  ('A41C C42G', 'low bin'),
  ('C31U G40A', 'low bin'),
  ('C13G G36U', 'mid bin'),
  ('G33A U38C', 'mid bin'),
  ('U9C A39U', 'low bin'),
  ('G2U A4G', 'mid bin'),
  ('A16G C37G', 'low bin'),
  ('U9A G40U', 'mid bin'),
  ('G33A G36U', 'mid bin'),
  ('G29C A41U', 'high bin'),
  ('G7C U43A', 'mid bin'),
  ('A16G C23A', 'high bin'),
  ('C13U G35A', 'high bin'),
  ('C18G G44C', 'mid bin'),
  ('U9C G19C', 'low bin'),
  ('A25G G36A', 'mid bin'),
  ('G7U C31G', 'low bin'),
  ('A12C U34C', 'low bin'),
  ('U32G C37G', 'low bin'),
  ('C8A C42U', 'high bin'),
  ('A6C C10U', 'mid bin'),
  ('G22U U34C', 'high bin'),
  ('G22A C23G', 'high bin'),
  ('A6U C46U', 'high bin'),
  ('A12G A16U', 'low bin'),
  ('C3G C37G', 'mid bin'),
  ('C18A U38G', 'low bin'),
  ('C42G', 'low bin'),
  ('C3A A26U', 'high bin'),
  ('A26C U34G', 'high bin'),
  ('U28A G44A', 'high bin'),
  ('U20A G30A', 'high bin'),
  ('A12C G29C', 'low bin'),
  ('A14C C31G', 'low bin'),
  ('G1A G44C', 'high bin'),
  ('G1A G2A', 'high bin'),
  ('C18U A24G', 'high bin'),
  ('C8U C31U', 'mid bin'),
  ('A26U G27A', 'high bin'),
  ('A4C G36C', 'mid bin'),
  ('A24U G35U', 'high bin'),
  ('A6C C31U', 'high bin'),
  ('U28A A41G', 'high bin'),
  ('U20G C46U', 'high bin'),
  ('A4C A24C', 'mid bin'),
  ('G7U C45A', 'mid bin'),
  ('U20C C42U', 'high bin'),
  ('G22C U38C', 'high bin'),
  ('G33U U43G', 'low bin'),
  ('A24C A25C', 'high bin');
